Taken from the RNAGym collection of RNA variant scans (doi:10.1021/acssynbio.7b00057).

B1: Pistol ribozyme (parent)
chain: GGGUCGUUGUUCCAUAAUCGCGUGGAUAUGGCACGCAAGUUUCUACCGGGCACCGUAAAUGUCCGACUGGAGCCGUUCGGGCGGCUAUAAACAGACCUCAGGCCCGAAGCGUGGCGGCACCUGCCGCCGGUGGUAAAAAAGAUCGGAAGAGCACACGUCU

- Variants of: B1
- method: aptazyme ON/OFF ratio, guanine; higher = stronger switching; co-transcriptional cleavage with and without guanine
Overview of recorded aptazyme ON/OFF ratio for various variants
# answer = number (no unit)

// solved cases for aptazyme ON/OFF ratio follow
U7G U8G G9U U10G U11G C12A C13U
1.06
U7A U8G G9C U10G U11G C12U C13A
1.2
U8C G9U U11A C13U
1.33
U7A G9A U10C C12G
1.34
U7A G9A U10G U11G
1.08
U7A G9A U11C C12G C13A
1.18
U7C U8A U10C U11G C12U C13G
1.16
U7G U8A G9C U10A C13G
1.01
U7C U8C G9C U10A U11C C12U C13U
1.17
U7G G9C U10G U11C
1.17

Turning now to a further variant:
## Input # input variant: U8G G9A U11C ; wanted: its aptazyme ON/OFF ratio
## Output 1.05
